# System: HEK-293T
# method-notes: Multiplex assay against HEK293T
# Format: toxicity, cell-based
# assay-setup: human, 12 h, 1 µM, compound concentration 1 uM, replicate 1
Listed next: entries and their corresponding Population Fragmented Nuclei (%).
Report the figure in % without appending any unit label.

Answered examples (6):
N[C@](CC1c2ccccc2Oc2ccccc21)(C(=O)O)[C@H]1C[C@@H]1C(=O)O = 6
S=C(NCCCc1c[nH]cn1)NCCCN(Cc1ccc(Cl)c(Cl)c1)c1ccc(Br)cn1 = 8
COc1cc2nc(N3CCN(C(=O)c4ccco4)CC3)nc(N)c2cc1OC.Cl [PRAZOSIN HYDROCHLORIDE] = 10
COc1ccc2c(c1OCc1ccccc1)C[C@@H](C(=O)O)N(C(=O)C(c1ccccc1)c1ccccc1)C2 = 6
Cc1ccc(OCC(O)C(C)NC(C)C)c2c1CCC2.Cl (centres undefined) = 6
Cc1nn(C)c2nc(NNC(=O)Nc3cc(Cl)nc(Cl)c3)cc(C(C)C)c12 = 5

Ask | HEK-293T / Population Fragmented Nuclei (%) / CN1C[C@H](C(=O)N[C@]2(C)O[C@@]3(O)[C@@H]4CCCN4C(=O)[C@H](Cc4ccccc4)N3C2=O)C[C@@H]2c3cccc4[nH]cc(c34)C[C@H]21.CS(=O)(=O)O [DIHYDROERGOTAMINE MESYLATE] : value?
Reply | 6

Ask | GET /values?readout=Population Fragmented Nuclei (%)&system=HEK-293T&item= `COc1cc(OC2CCN(C(C)=O)CC2)ccc1C(=O)N1CCC(N2C(=O)OCc3ccccc32)CC1`
Reply | 5

Ask | Value wanted: Population Fragmented Nuclei (%) (HEK-293T) of entry `Cc1sc2c(c1C)C(c1ccc(Cl)cc1)=N[C@H](CC(=O)OC(C)(C)C)c1nnc(C)n1-2`
Reply | 8

---

The entries below are paired with their reported Population Membrane Permeable-Phenotype (%).
# System: Fibroblast
# method-notes: Multiplex assay against human fibroblast
# Type: toxicity, cell-based
# assay-setup: 24 h, 10 µM, compound concentration 10 uM, replicate 1

Answered examples (7):
CCc1nn2c(C)cc(C)nc2c1Cc1ccc(-c2nnc(C3CCNCC3)o2)cc1 = 0%
Cc1cc(=O)n(C)c2cc(N3C(=O)CC[C@H](NS(=O)(=O)CC(C)C)[C@H]3c3ccc(Cl)cc3)ccc12 = 0%
CN1CCN2c3ccccc3Cc3ccccc3C2C1.Cl (stereo not drawn) [MIANSERIN HYDROCHLORIDE] = 0%
COc1cc(C(=O)N2CC[C@@H](O)[C@@H](N)C2)cc2nc(-c3cc4ccccc4n3CC3CC3)n(C)c12.Cl = 0%
CSc1nc(NC2CCCC2)c([N+](=O)[O-])c(NC2CCCC2)n1 [GS-39783] = 0%
Cc1nn(C)c2nc(NNC(=O)Nc3cc(Cl)nc(Cl)c3)cc(C(C)C)c12 = 1%
Cn1cc(C(=O)OCC2CCN(CCNS(C)(=O)=O)CC2)c2ccccc21 = 0%

Ask | Can you share its Population Membrane Permeable-Phenotype (%)? I mean this compound: CCC(=O)OCC(=O)[C@@]1(OC(=O)CC)[C@@H](C)C[C@H]2[C@@H]3CCC4=CC(=O)C=C[C@]4(C)[C@@]3(Cl)[C@@H](O)C[C@@]21C [BECLOMETHASONE DIPROPIONATE]
Reply | 1%

---

Attribute: Population Apoptotic (%)
# Test system: Fibroblast
# method-notes: Multiplex assay against human fibroblast
# Type: toxicity, cell-based
# assay-setup: 24 h, 1 µM, compound concentration 1 uM, replicate 2
Respond numerically; units are % and should not be typed.

Observe how each entry below is paired with its result.
Cc1cc(=O)n(C)c2cc(N3C(=O)CC[C@H](NS(=O)(=O)CC(C)C)[C@H]3c3ccc(Cl)cc3)ccc12 = 50
O=C(O)CCC/C=C\CC1C(O)CC(O)C1/C=C/C(O)COc1cccc(Cl)c1 (stereo unspecified) = 18
O=c1nc2[nH]c3ccccc3nc-2c(=O)[nH]1 = 36

Ask | So what's the measured Population Apoptotic (%) for this one? Cl.Cl.OCCOCCN1CCN(C(c2ccccc2)c2ccc(Cl)cc2)CC1 (stereo unspecified) [HYDROXYZINE HYDROCHLORIDE]
Reply | 44

Ask | Data request, read-out Population Apoptotic (%), for `COc1cc2nc(N3CCN(C(=O)COc4c(OC)cccc4C(C)C)CC3)nc(N)c2cc1OC.Cl.Cl`
Reply | 57

Ask | // Population Apoptotic (%) lookup, key: CCn1c(-c2nc3cc(C(=O)N4CCCC(N)C4)ccc3n2C)cc2ccccc21.Cl (stereo unspecified)
Reply | 55

---

# System: U2OS
# method-notes: Multiplex assay against U2OS
# Format: toxicity, cell-based
# assay-setup: human, 12 h, 10 µM, compound concentration 10 uM, replicate 1
readout-name: Population Mitotic Cells (%)
# output: bare number, implied unit %

These recorded examples may help you get a feel for the data.
Cc1cc(-c2ccc3c(c2)CC[C@H]3N2CC3(CCN(C(=O)Cc4cn5cc(C)sc5n4)CC3)C2)ncn1 = 38
COc1ccc2c(c1OCc1ccccc1)C[C@@H](C(=O)O)N(C(=O)C(c1ccccc1)c1ccccc1)C2 = 21
O=c1nc2[nH]c3ccccc3nc-2c(=O)[nH]1 = 13
CN1CCN2c3ccccc3Cc3ccccc3C2C1.Cl (stereo not drawn) [MIANSERIN HYDROCHLORIDE] = 21
Cc1cc(O)c(-c2ccc([C@@H](C)CN(C)C)cc2)c2c1[nH]c(=O)c1sccc12 = 35
CC(C)(O)C(=O)N1CCN(c2ccc(C(F)(F)F)c(C3=C(c4c[nH]c5ccccc45)C(=O)NC3=O)c2)CC1 = 24

Ask | Returns the measured Population Mitotic Cells (%) for the input molecule. Input: `Cn1cc(C(=O)OCC2CCN(CCNS(C)(=O)=O)CC2)c2ccccc21`
Reply | 46

Ask | # lookup: Population Mitotic Cells (%) of COc1cc2nc(N3CCN(C(=O)c4ccco4)CC3)nc(N)c2cc1OC.Cl [PRAZOSIN HYDROCHLORIDE]
Reply | 13

Ask | Which value of Population Mitotic Cells (%) has been reported for COCCCN1CCC(NC(=O)c2cc(Cl)c(N)c3c2OCC3)CC1 [PRUCALOPRIDE] in the records?
Reply | 31

---

# System: HEK-293T
# method-notes: Multiplex assay against HEK293T
# Assay type: toxicity, cell-based
# assay-setup: human, 12 h, 10 µM, compound concentration 10 uM, replicate 1
# binarize Population Healthy Nuclei (%): threshold 70% inclusive, high side yes (1), low side no (0)

Cc1ccc(OCC(O)C(C)NC(C)C)c2c1CCC2.Cl (stereo not drawn) = no (0)
COC(c1ccccc1)(c1ccccc1)[C@H](Oc1nc(C)cc(C)n1)C(=O)O = yes (1)

Ask | Item COCCCN1CCC(NC(=O)c2cc(Cl)c(N)c3c2OCC3)CC1 [PRUCALOPRIDE] with Population Healthy Nuclei (%) of 70% or above?
Reply | yes (1)

Ask | State whether the measured Population Healthy Nuclei (%) reaches 70%, counting equality as reaching it, for `CC(F)(F)CN1CCOc2c(nn(-c3ccccc3Cl)c2-c2ccc(Cl)cc2)C1=O`
Reply | yes (1)

Ask | Would you say `Cc1c(Cc2ccc3ccccc3n2)c2cc(F)ccc2n1CC(=O)O` shows Population Healthy Nuclei (%) at minimum 70%?
Reply | yes (1)

Ask | Population Healthy Nuclei (%) >= 70% for `CC(C)(O)C(=O)N1CCN(c2ccc(C(F)(F)F)c(C3=C(c4c[nH]c5ccccc45)C(=O)NC3=O)c2)CC1` ?
Reply | yes (1)

---

# System: Fibroblast
# method-notes: Multiplex assay against human fibroblast
# Type: toxicity, cell-based
# assay-setup: 12 h, 1 µM, compound concentration 1 uM, replicate 2
Non-standard residues stand in square brackets, D forms with d. Residues, ends and D or L forms follow the SMILES beside them.
readout-name: Population Healthy Nuclei (%)
State the answer as a number, implicitly in %.

Answered cases to consult:
COc1cc(OC2CCN(C(C)=O)CC2)ccc1C(=O)N1CCC(N2C(=O)OCc3ccccc32)CC1 = 52
CN1C[C@H](C(=O)N[C@]2(C)O[C@@]3(O)[C@@H]4CCCN4C(=O)[C@H](Cc4ccccc4)N3C2=O)C[C@@H]2c3cccc4[nH]cc(c34)C[C@H]21.CS(=O)(=O)O [DIHYDROERGOTAMINE MESYLATE] = 51
COC(c1ccccc1)(c1ccccc1)[C@H](Oc1nc(C)cc(C)n1)C(=O)O = 56
COc1cc(Nc2ncc3c(n2)-c2ccc(Cl)cc2C(c2c(F)cccc2OC)=NC3)ccc1C(=O)O = 47
CC(C)C[C@@H]1NC(=O)[C@@H](C(C)C)NC(=O)[C@@H]2CCCN2C(=O)[C@@H](CC(=O)O)NC(=O)[C@@H](Cc2c[nH]c3ccccc23)NC1=O [BQ-123] (cyclo(L[dW][dD]P[dV])) = 58

Would you kindly look at the next entry?
Ask | Bench note: what Population Healthy Nuclei (%) did `C=CCN1C[C@H](C(=O)N(CCCN(C)C)C(=O)NCC)C[C@@H]2c3cccc4[nH]cc(c34)C[C@H]21` show?
Reply | 46
